The reported numbers originate from patent US20080015146A1.

biological target: DPP-IV (Homo sapiens, UniProt P27487); construct: Soluble human DPP-IV lacking the transmembrane anchor (Gly31-Pro766); Pre-Pro-alpha-mating factor secretion leader (N, cleaved yes); assay: Continuous fluorimetric assay of inhibition of DPP-IV peptidase activity (cleavage of Gly-Pro-AMC); details: substrate Gly-Pro-AMC 16 μM, pH 7.4, 25° C., 1% DMSO; assays carried out with human and porcine DPP-IV (comparable activities)
Sequence (P27487 31-766): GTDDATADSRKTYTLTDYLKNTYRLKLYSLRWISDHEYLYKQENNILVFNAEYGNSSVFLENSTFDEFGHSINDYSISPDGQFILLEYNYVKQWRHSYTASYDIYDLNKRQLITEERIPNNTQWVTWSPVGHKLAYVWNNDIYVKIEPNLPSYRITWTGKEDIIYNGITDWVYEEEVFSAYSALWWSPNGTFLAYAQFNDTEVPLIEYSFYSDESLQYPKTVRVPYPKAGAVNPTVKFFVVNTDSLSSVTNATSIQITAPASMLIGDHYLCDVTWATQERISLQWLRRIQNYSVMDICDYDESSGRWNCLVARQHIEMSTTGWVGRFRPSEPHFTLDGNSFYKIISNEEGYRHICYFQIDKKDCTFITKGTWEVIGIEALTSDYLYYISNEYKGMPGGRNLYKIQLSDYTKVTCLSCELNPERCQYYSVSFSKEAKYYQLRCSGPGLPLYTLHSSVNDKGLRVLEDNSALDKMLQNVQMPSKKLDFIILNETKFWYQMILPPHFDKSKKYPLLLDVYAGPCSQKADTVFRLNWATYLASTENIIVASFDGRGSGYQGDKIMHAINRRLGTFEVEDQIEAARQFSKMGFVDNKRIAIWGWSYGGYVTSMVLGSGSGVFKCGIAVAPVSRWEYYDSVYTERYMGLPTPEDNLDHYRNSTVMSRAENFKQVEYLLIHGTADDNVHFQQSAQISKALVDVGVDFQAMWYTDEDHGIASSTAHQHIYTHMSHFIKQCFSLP
Structures can show the parent of a compound that is named as a salt.
property-name: IC50

{"columns": ["compound", "recorded-value"],
 "data": [
  ["N[C@@H](CC(=O)N1CC(n2ccc(C(F)(F)F)n2)C1)Cc1cc(F)c(F)cc1F", "< 100 nM"],
  ["CC(C)(C)n1cnc([C@@H]2CCCN2C(=O)C[C@H](N)Cc2cc(F)c(F)cc2F)n1", "< 100 nM"],
  ["N[C@@H](CC(=O)N1CCC[C@H]1c1nc(-c2ccccc2)co1)Cc1ccccc1F [Example 45, formate salt]", "< 100 nM"],
  ["CS(=O)(=O)c1cccc(-c2noc([C@@H]3CCCN3C(=O)C[C@H](N)Cc3ccccc3F)n2)c1", "< 100 nM"],
  ["N[C@@H](CC(=O)N1CCC[C@@H]1c1nc(-c2cccc(F)c2)no1)Cc1ccccc1F [Example 30, hydrochloride]", "101 to 1000 nM"],
  ["N[C@@H](CC(=O)N1CCC[C@H]1c1nc(C2CCC2)no1)Cc1cc(F)c(F)cc1F [Example 15, formate salt]", "< 100 nM"],
  ["N[C@@H](CC(=O)N1CCC[C@@H]1c1nc(-c2cccc(Cl)c2)no1)Cc1ccccc1F [Example 29, hydrochloride]", "101 to 1000 nM"]
]}

---

biological target: DPP-IV (Homo sapiens, UniProt P27487); construct: Soluble human DPP-IV lacking the transmembrane anchor (Gly31-Pro766); Pre-Pro-alpha-mating factor secretion leader (N, cleaved yes); experiment: Continuous fluorimetric assay of inhibition of DPP-IV peptidase activity (cleavage of Gly-Pro-AMC); settings: substrate Gly-Pro-AMC 16 μM, pH 7.4, 25° C., 1% DMSO; assays carried out with human and porcine DPP-IV (comparable activities)
pIC50: −log10 of the molar value. Structures can show the parent of a compound that is named as a salt.

{"columns": ["molecule", "pIC50"],
 "data": [
  ["N[C@@H](CC(=O)N1CCC[C@@H]1c1nc(-c2ccccc2)no1)Cc1ccccc1F [Example 28, hydrochloride]", "6.00 to 7.00"],
  ["CC(C)(C)c1noc([C@@H]2CCN2C(=O)C[C@H](N)Cc2cc(F)c(F)cc2F)n1 [Example 49, formate salt]", "> 7.00"],
  ["N[C@@H](CC(=O)N1CCC[C@H]1c1ncn(-c2ccccc2)n1)Cc1ccccc1F [Example 43, formate salt]", "> 7.00"],
  ["N[C@@H](CC(=O)N1CCC[C@H]1c1nc(-c2ccccn2)no1)Cc1ccccc1F", "> 7.00"],
  ["N[C@@H](CC(=O)N1CC(n2cccn2)C1)Cc1ccccc1F", "6.00 to 7.00"],
  ["N[C@@H](CC(=O)N1CCC[C@H]1c1nc(C2CC2)no1)Cc1ccccc1F", "> 7.00"],
  ["N[C@@H](CC(=O)N1CCC[C@H]1c1nnc(-c2ccccc2)[nH]1)Cc1ccccc1F [Example 44, formate salt]", "6.00 to 7.00"],
  ["CS(=O)(=O)c1ccc(-c2noc([C@H]3CCCN3C(=O)C[C@H](N)Cc3ccccc3F)n2)cc1 [Example 31, hydrochloride]", "> 7.00"],
  ["N[C@@H](CC(=O)N1CCC[C@H]1c1nc2cc(Cl)ccc2[nH]1)Cc1ccccc1F [Example 40, trifluoroacetic acid salt]", "> 7.00"],
  ["CS(=O)(=O)Nc1ccc(-c2noc([C@@H]3CCCN3C(=O)C[C@H](N)Cc3ccccc3F)n2)cc1 [Example 10, trifluoroacetic acid salt]", "> 7.00"],
  ["N[C@@H](CC(=O)N1CCC[C@H]1c1nc(-c2cc(F)cc(F)c2)no1)Cc1ccccc1F", "> 7.00"],
  ["N[C@@H](CC(=O)N1CCC[C@@H]1c1nc(-c2ccccn2)no1)Cc1ccccc1F [Example 32, hydrochloride]", "6.00 to 7.00"],
  ["COCC1(c2noc([C@@H]3CCCN3C(=O)C[C@H](N)Cc3cc(F)c(F)cc3F)n2)CC1 [Example 25, formate salt]", "> 7.00"],
  ["N[C@@H](CC(=O)N1CCC[C@H]1c1ccn(-c2ccccc2)n1)Cc1ccccc1F [Example 47, formate salt]", "6.00 to 7.00"],
  ["N[C@@H](CC(=O)N1CCC[C@H]1c1nc(-c2cccc(Cl)c2)no1)Cc1ccccc1F [Example 2, hydrochloride]", "> 7.00"],
  ["N[C@@H](CC(=O)N1CCC[C@H]1c1nc(-c2cccc(F)c2)no1)Cc1cccc(Cl)c1 [Example 6, trifluoroacetic acid salt]", "> 7.00"],
  ["N[C@@H](CC(=O)N1CC(n2nccc2C(F)(F)F)C1)Cc1cc(F)c(F)cc1F", "> 7.00"]
]}

---

target: DPP-IV (Homo sapiens); construct: Soluble human DPP-IV lacking the transmembrane anchor (Gly31-Pro766); Pre-Pro-alpha-mating factor secretion leader (N, cleaved yes); made in house; test: Continuous fluorimetric assay of inhibition of DPP-IV peptidase activity (cleavage of Gly-Pro-AMC); assay type: biochemical; conditions: substrate Gly-Pro-AMC 16 μM, pH 7.4, 25° C., 1% DMSO; assays carried out with human and porcine DPP-IV (comparable activities)
Where a name gives a salt, the structure may show the parent alone.

{"columns": ["molecule", "IC50"],
 "data": [
  ["N[C@@H](CC(=O)N1CC(n2ccc(C3CC3)n2)C1)Cc1cc(F)c(F)cc1F", "< 0.1 µM"],
  ["N[C@@H](CC(=O)N1CC(N2CCN(c3ccccn3)CC2)C1)Cc1ccccc1F", "1 to 2 µM"],
  ["N[C@@H](CC(=O)N1CCC[C@H]1c1nc(-c2ccc(F)cc2F)no1)Cc1ccccc1F", "< 0.1 µM"],
  ["N[C@@H](CC(=O)N1CCC[C@H]1c1nnc(-c2ccccc2)o1)Cc1ccccc1F [Example 46, formate salt]", "0.101 to 1 µM"],
  ["N[C@@H](CC(=O)N1CCC[C@H]1c1noc(-c2ccc(F)cn2)n1)Cc1cc(F)c(F)cc1F [Example 36, formate salt]", "< 0.1 µM"],
  ["N[C@@H](CC(=O)N1CCC[C@H]1c1nc(-c2ccccc2)no1)Cc1ccccc1F [Example 1, hydrochloride]", "< 0.1 µM"],
  ["N[C@@H](CC(=O)N1CC(F)(F)C[C@H]1c1nc(C2CC2)no1)Cc1cc(F)c(F)cc1F [Example 27, formate salt]", "< 0.1 µM"]
]}
